tested on: PCSK9 gene; test: PCSK9 gRNA/SpCas9 editing in primary human hepatocytes (Tables 2, 4); type: cell-based; settings: 500 ng/RNA/mL; SpCas9 mRNA MS002 1:1 by weight
In the oligonucleotide strings, read from the 5' end, every base follows the letter of its sugar. An asterisk marks phosphorothioate; unmarked linkages are phosphodiester. Other units and linkages are bracketed, terminal groups are in braces. A string of capitals states the bases alone. m = 2'-O-methyl; r = 2'-OH (RNA)
What Human Primary Hepatocyte Editing % 500 was measured for each of the following?
Answers are plain numbers, in %.

Before answering, review these 2 worked examples.
Molecule	Endpoint value
GA196: PCSK9 gRNA; protospacer GAGTGACCACCGGGAAATCG (SEQ ID NO: 190) (nucleic acid, sugars from the 5' end m3 r94 m3, linkages s3 o93 s3 (s phosphorothioate, o phosphodiester), T or U not given here) guide: GAGUGACCACCGGGAAAUCGGUUUUAGAGCUAGAAAUAGCAAGUUAAAAUAAGGCUAGUCCGUUAUCAACUUGAAAAAGUGGCACCGAGUCGGUGCUUUU	2.9
GA186: PCSK9 gRNA; protospacer CTCATCTTCACCAGGAAGCC (SEQ ID NO: 180) (nucleic acid) guide: mC*mU*mC*rArUrCrUrUrCrArCrCrArGrGrArArGrCrCrGrUrUrUrUrArGrArGrCrUrArGrArArArUrArGrCrArArGrUrUrArArArArUrArArGrGrCrUrArGrUrCrCrGrUrUrArUrCrArArCrUrUrGrArArArArArGrUrGrGrCrArCrCrGrArGrUrCrGrGrUrGrCrU*mU*mU*mU	3.57

Challenge: Read the entry GA218: PCSK9 gRNA; protospacer CGCTGACCACCCCTGCCAGG (SEQ ID NO: 212) (nucleic acid, sugars from the 5' end m3 r94 m3, linkages s3 o93 s3 (s phosphorothioate, o phosphodiester), T or U not given here) guide: CGCUGACCACCCCUGCCAGGGUUUUAGAGCUAGAAAUAGCAAGUUAAAAUAAGGCUAGUCCGUUAUCAACUUGAAAAAGUGGCACCGAGUCGGUGCUUUU and write its reported Human Primary Hepatocyte Editing % 500.
Response given: 8.96
